- method-summary: probe aXIP binding to arrayed compounds – biochemical, NeuroSMM set, 635/667 nm fluorescence, primary screen (AID 1119);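 also: probe is the protein aXip251-270 applied at 1 µg/mL to compound-printed slides; binding of probe to printed compounds measured as 667 nm fluorescence plus signal to noise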
- reported-conditions: small-molecule microarray, higher = more signal, called active from +8 up or from −8 down

compound	composite Z-score
C=C[C@H](C)[C@H](OC(=O)Nc1ccc(SC)cc1)c1ccc(OCCO)cc1	2.78
CC(C)c1ccc(NN2C(C(O)c3ccc(F)cc3)C=CC3C(=O)N(c4ccccc4)C(=O)C32)cc1 (centres undefined)	0.131
COc1cc(NN2C(C(O)c3cc(OC)c(OC)c(OC)c3)C=CC3C(=O)N(C)C(=O)C32)cc(OC)c1OC (centres undefined)	0.328
C=CC[C@@H](OC(=O)Nc1ccc(OC)cc1)c1ccc(O)c(F)c1	0.683
NC(=O)[C@@]1(Cc2ccccc2)COC(c2ccc(OCCCO)cc2)=N1	0.08
[N-]=[N+]=Nc1ccccc1C[C@@]1(C(=O)NCCN2CCOCC2)N=C(c2ccc(OCCCO)cc2)O[C@@H]1c1ccccc1N=[N+]=[N-]	-0.0662
O=C1CS(=O)(=O)C(c2cccc([N+](=O)[O-])c2)N1c1ccccc1 (centres undefined)	1.11
CCCC=C(CCC)[C@@H](NC(=O)C(C)(C)C)c1ccc(C(=O)OC)cc1	0.29
C=CCN1Cc2ccccc2[C@@H]2OC(c3ccc(OCCCO)cc3)=N[C@]2(CC=C)C1=O	1.79
